# System: A549 cells
# ASSAY METHOD TEXT: In vitro cytotoxicity assay (MTT), A549
# EXPERIMENTAL PARAMETERS: Homo sapiens, A549, 48 h, read-out: percentage of cell viability, A549
ASSAY ENDPOINT: viability at 10 µM (%)

1) O=C(N/N=C/c1cccc(C(F)(F)F)c1)c1ccc(Nc2ncnc3c2ncn3C2CCCC2)cc1 [16b]    27
2) O=C(N/N=C/c1cccc2ccccc12)c1ccc(Nc2ncnc3nc[nH]c23)cc1 [23a]    74
3) O=C(N/N=C/c1cccc(C(F)(F)F)c1)c1ccc(Nc2ncnc3nc[nH]c23)cc1 [16a]    68
4) COc1cccc(/C=N/NC(=O)c2ccc(Nc3ncnc4nc[nH]c34)cc2)c1 [12a]    75
5) O=C(N/N=C/c1ccc([N+](=O)[O-])cc1)c1ccc(Nc2ncnc3nc[nH]c23)cc1 [15a]    49
6) O=C(N/N=C/c1ccc(F)c(C(F)(F)F)c1)c1ccc(Nc2ncnc3nc[nH]c23)cc1 [17a]    59
7) O=C(N/N=C/c1ccccc1)c1ccc(Nc2ncnc3c2ncn3C2CCCC2)cc1    50
8) O=C(N/N=C/c1ccccc1)c1ccc(Nc2ncnc3nc[nH]c23)cc1    63
9) COc1ccc(/C=N/NC(=O)c2ccc(Nc3ncnc4nc[nH]c34)cc2)cc1 [13a]    86
10) C#Cc1cccc(Nc2ncnc3cc(OCCOC)c(OCCOC)cc23)c1 [Erlotinib, erlotinib, reference compound]    48
11) O=C(N/N=C/c1cccc(-c2ccccc2)c1)c1ccc(Nc2ncnc3nc[nH]c23)cc1 [19a]    39
12) N#Cc1ccc(/C=N/NC(=O)c2ccc(Nc3ncnc4nc[nH]c34)cc2)cc1    50
13) NS(=O)(=O)c1cc(/C=N/NC(=O)c2ccc(Nc3ncnc4c3ncn4C3CCCC3)cc2)ccc1F [22b]    35

----------
# ASSAY METHOD TEXT: In vitro cytotoxicity assay (MTT), normal cell line MRC-5
# Format: cell-based
# EXPERIMENTAL PARAMETERS: MRC-5 normal embryonic lung cells, normal human embryonic lung cell line, mean ± SD
ASSAY ENDPOINT: IC50 at 48 h (µM)

1) O=C(N/N=C/c1cccc(C(F)(F)F)c1)c1ccc(Nc2ncnc3c2ncn3C2CCCC2)cc1 [16b]    36.6
2) NS(=O)(=O)c1cc(/C=N/NC(=O)c2ccc(Nc3ncnc4c3ncn4C3CCCC3)cc2)ccc1F [22b]    60.6
3) C#Cc1cccc(Nc2ncnc3cc(OCCOC)c(OCCOC)cc23)c1 [Erlotinib, erlotinib, reference compound]    19.4
4) O=C(N/N=C/c1cccc(-c2ccccc2)c1)c1ccc(Nc2ncnc3nc[nH]c23)cc1 [19a]    52.4
5) CS(=O)(=O)CCNCc1ccc(-c2ccc3ncnc(Nc4ccc(OCc5cccc(F)c5)c(Cl)c4)c3c2)o1 [Lapatinib, lapatinib, reference compound]    43.9

----------
# TESTED SYSTEM: HER2 (Homo sapiens, UniProt P04626)
# Sequence (P04626 23-1255): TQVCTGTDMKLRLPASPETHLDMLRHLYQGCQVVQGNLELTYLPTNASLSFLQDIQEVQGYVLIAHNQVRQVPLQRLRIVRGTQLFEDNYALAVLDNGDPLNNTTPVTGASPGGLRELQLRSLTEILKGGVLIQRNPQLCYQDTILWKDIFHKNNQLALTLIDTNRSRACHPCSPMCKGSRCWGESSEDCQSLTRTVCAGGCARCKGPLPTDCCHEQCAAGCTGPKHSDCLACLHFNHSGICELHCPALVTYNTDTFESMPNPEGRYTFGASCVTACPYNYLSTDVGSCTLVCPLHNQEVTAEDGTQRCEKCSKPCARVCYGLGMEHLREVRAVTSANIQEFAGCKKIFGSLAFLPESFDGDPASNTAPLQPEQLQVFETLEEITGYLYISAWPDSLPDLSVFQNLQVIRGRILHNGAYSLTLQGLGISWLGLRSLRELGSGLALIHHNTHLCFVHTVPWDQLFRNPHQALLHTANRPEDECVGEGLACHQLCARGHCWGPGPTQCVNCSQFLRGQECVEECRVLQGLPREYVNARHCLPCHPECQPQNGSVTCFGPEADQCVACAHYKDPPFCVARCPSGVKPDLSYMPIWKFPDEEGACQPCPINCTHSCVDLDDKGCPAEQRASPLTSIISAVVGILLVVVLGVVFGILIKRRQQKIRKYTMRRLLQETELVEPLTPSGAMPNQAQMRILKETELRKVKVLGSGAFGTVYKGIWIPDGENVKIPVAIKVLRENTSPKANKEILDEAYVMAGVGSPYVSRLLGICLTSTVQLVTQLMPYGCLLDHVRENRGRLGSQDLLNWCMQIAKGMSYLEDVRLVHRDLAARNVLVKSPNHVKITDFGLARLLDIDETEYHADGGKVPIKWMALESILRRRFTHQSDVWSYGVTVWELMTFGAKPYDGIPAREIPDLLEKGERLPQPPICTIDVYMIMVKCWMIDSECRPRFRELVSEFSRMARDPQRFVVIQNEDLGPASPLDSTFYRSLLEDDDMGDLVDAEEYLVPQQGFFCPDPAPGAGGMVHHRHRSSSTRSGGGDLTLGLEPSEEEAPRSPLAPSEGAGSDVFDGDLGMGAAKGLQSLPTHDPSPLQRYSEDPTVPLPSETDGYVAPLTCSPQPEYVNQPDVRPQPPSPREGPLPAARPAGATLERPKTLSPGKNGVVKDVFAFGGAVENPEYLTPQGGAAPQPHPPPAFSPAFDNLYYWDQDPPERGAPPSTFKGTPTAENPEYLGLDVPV
pIC50: −log10 of the molar value.
Below, each entry is listed with its recorded pIC50.
ASSAY ENDPOINT: pIC50

1. O=C(N/N=C/c1cccc(-c2ccccc2)c1)c1ccc(Nc2ncnc3nc[nH]c23)cc1 [19a]    7.23
2. O=C(N/N=C/c1cccc(C(F)(F)F)c1)c1ccc(Nc2ncnc3c2ncn3C2CCCC2)cc1 [16b]    7.35

----------
# Test system: SKOV-3 cells
# ASSAY METHOD TEXT: In vitro cytotoxicity assay (MTT), SKOV-3
# Type: cell-based, human
# EXPERIMENTAL PARAMETERS: Homo sapiens, SK-OV-3, 48 h, MTT, 48 h; mean ± SD, three experiments
# Description: The selected cell lines include A549, a lung cancer cell line that is characterized by its high expression of EGFR; SKOV-3, an ovarian cancer cell line, selected for its overexpression of both EGFR and HER2; and the breast cancer cell line (SKBR-3), characterized by HER2 overexpression. Cells were passaged regularly at around 80% confluency using […] and maintained in 75 cm^2 flasks at 37 °C in a humidified atmosphere containing 5% CO2. […]
pIC50: −log10 of the molar value.
ASSAY ENDPOINT: pIC50

1. O=C(N/N=C/c1cccc(C(F)(F)F)c1)c1ccc(Nc2ncnc3c2ncn3C2CCCC2)cc1 [16b]    5.71
2. O=C(N/N=C/c1cccc(-c2ccccc2)c1)c1ccc(Nc2ncnc3c2ncn3C2CCCC2)cc1 [19b]    4.81
3. CS(=O)(=O)CCNCc1ccc(-c2ccc3ncnc(Nc4ccc(OCc5cccc(F)c5)c(Cl)c4)c3c2)o1 [Lapatinib, lapatinib, reference compound]    4.77
4. NS(=O)(=O)c1cc(/C=N/NC(=O)c2ccc(Nc3ncnc4c3ncn4C3CCCC3)cc2)ccc1F [22b]    5.81
5. C#Cc1cccc(Nc2ncnc3cc(OCCOC)c(OCCOC)cc23)c1 [Erlotinib, erlotinib, reference compound]    5.29
6. O=C(N/N=C/c1cccc(-c2ccccc2)c1)c1ccc(Nc2ncnc3nc[nH]c23)cc1 [19a]    5.66

----------
# Tested on: A549 cells
# ASSAY METHOD TEXT: In vitro cytotoxicity assay (MTT), A549
# EXPERIMENTAL PARAMETERS: Homo sapiens, A549, 48 h, read-out: Cytotoxicity (IC50), A549, MTT, 48 h; mean ± SD, three experiments
pIC50: −log10 of the molar value.
ASSAY ENDPOINT: pIC50

1) CS(=O)(=O)CCNCc1ccc(-c2ccc3ncnc(Nc4ccc(OCc5cccc(F)c5)c(Cl)c4)c3c2)o1 [Lapatinib, lapatinib, reference compound]    4.94
2) O=C(N/N=C/c1cccc(C(F)(F)F)c1)c1ccc(Nc2ncnc3c2ncn3C2CCCC2)cc1 [16b]    5.59
3) NS(=O)(=O)c1cc(/C=N/NC(=O)c2ccc(Nc3ncnc4c3ncn4C3CCCC3)cc2)ccc1F [22b]    5.40
4) O=C(N/N=C/c1cccc(-c2ccccc2)c1)c1ccc(Nc2ncnc3nc[nH]c23)cc1 [19a]    6.09
5) O=C(N/N=C/c1cccc(-c2ccccc2)c1)c1ccc(Nc2ncnc3c2ncn3C2CCCC2)cc1 [19b]    5.73

----------
Below, each entry is listed with its recorded pIC50.
# System: SKOV-3 cells
# ASSAY METHOD TEXT: In vitro cytotoxicity assay (MTT), SKOV-3
# Format: cell-based, human
# EXPERIMENTAL PARAMETERS: MTT, 48 h; mean ± SD, three experiments
pIC50: −log10 of the molar value.
ASSAY ENDPOINT: pIC50

1) O=C(N/N=C/c1cccc(-c2ccccc2)c1)c1ccc(Nc2ncnc3nc[nH]c23)cc1 [19a]    5.66
2) NS(=O)(=O)c1cc(/C=N/NC(=O)c2ccc(Nc3ncnc4c3ncn4C3CCCC3)cc2)ccc1F [22b]    5.81
3) O=C(N/N=C/c1cccc(C(F)(F)F)c1)c1ccc(Nc2ncnc3c2ncn3C2CCCC2)cc1 [16b]    5.70

----------
# Test system: SKBR-3 cells
# ASSAY METHOD TEXT: In vitro cytotoxicity assay (MTT), SKBR-3
# Format: cell-based, human
# EXPERIMENTAL PARAMETERS: Homo sapiens, SK-BR-3, 48 h, MTT, 48 h; mean ± SD, three experiments
ASSAY ENDPOINT: IC50 (µM)

1) CS(=O)(=O)CCNCc1ccc(-c2ccc3ncnc(Nc4ccc(OCc5cccc(F)c5)c(Cl)c4)c3c2)o1 [Lapatinib, lapatinib, reference compound]    8.54
2) NS(=O)(=O)c1cc(/C=N/NC(=O)c2ccc(Nc3ncnc4c3ncn4C3CCCC3)cc2)ccc1F [22b]    3.8
3) O=C(N/N=C/c1cccc(C(F)(F)F)c1)c1ccc(Nc2ncnc3c2ncn3C2CCCC2)cc1 [16b]    4.3
4) O=C(N/N=C/c1cccc(-c2ccccc2)c1)c1ccc(Nc2ncnc3nc[nH]c23)cc1 [19a]    1.41
5) O=C(N/N=C/c1cccc(-c2ccccc2)c1)c1ccc(Nc2ncnc3c2ncn3C2CCCC2)cc1 [19b]    3.2
6) C#Cc1cccc(Nc2ncnc3cc(OCCOC)c(OCCOC)cc23)c1 [Erlotinib, erlotinib, reference compound]    5.12
